- Test system: STEME (common chickweed)
- Test Summary: Pre-emergence herbicidal activity, cool season
- Type: in vivo, Stellaria media
- Condition Notes: lowest tested rate with 80% or greater inhibition; rates 300, 100, 30, 10 g/ha; about 14 days
Quick list: Pre-emergence activity GR80, STEME per entry.
The reply should be a number in g/ha, with the unit left off.

Smiles Text: CCN(CC)C(=S)n1cnc(S(=O)(=O)C(F)(F)C(F)(F)Br)n1
Pre-emergence activity GR80, STEME, g/ha: 300

The molecule listed as COCCN(C)C(=O)n1cnc(S(=O)(=O)C(F)(F)Br)n1 has a reported Pre-emergence activity GR80, STEME of 300

Pre-emergence activity GR80, STEME reading for CCN(CC)C(=O)n1cnc(S(=O)(=O)C(F)(F)SC)n1 : 300

Pre-emergence activity GR80, STEME reading for C=C(C)CC(F)(F)S(=O)(=O)c1ncn(C(=O)N(CC)CC)n1 : 30

---

Percent inhibition CHEAL listing for selected compounds.
- System: CHEAL (common lambsquarters)
- Test Summary: Pre-plant incorporated (PPI) herbicidal activity, warm season
- Type: in vivo, Chenopodium album
- Condition Notes: PPI application, 10 g/ha
State just the number; it will be interpreted in %.

# count of solved cases: 3
Smiles Text: CCN(CC)C(=O)n1cnc(S(=O)(=O)C(F)(F)SCc2ccccc2)n1
Result Units: %
Quantitative Result: 30

Smiles Text: CCN(CC)C(=O)n1cnc(S(=O)(=O)C(F)(F)SCCOC)n1
Result Units: %
Quantitative Result: 30

Smiles Text: CCN(CC)C(=O)n1cnc(S(=O)(=O)C(F)(F)C(F)F)n1
Result Units: %
Quantitative Result: 100

// next entry
Param item: CCN(CC)C(=O)n1cnc(S(=O)(=O)C(F)(F)SCC(=O)OC)n1 ; param system: CHEAL (common lambsquarters); output Percent inhibition CHEAL: 30

---

- System: SOLNI (black nightshade)
- Test Summary: Pre-plant incorporated (PPI) herbicidal activity, warm season
- Assay type: in vivo, Solanum nigrum
- Condition Notes: Solanum nigrum; PPI application, 300 g/ha; read-out: Percent inhibition SOLNI
Recorded Endpoint: inhibition at 300 g/ha (%)
Provide only the numeric value, understood in %.

// below: answered molecules
Smiles Text: CCN(CC)C(=O)n1cnc(S(=O)(=O)C(F)F)n1
inhibition at 300 g/ha (%): 100
--
Smiles Text: C=C(C)CC(F)(F)S(=O)(=O)c1ncn(C(=O)N(CC)CC)n1
inhibition at 300 g/ha (%): 99
--
Smiles Text: CCN(CC)C(=O)n1cnc(S(=O)(=O)C(F)(F)Br)n1
inhibition at 300 g/ha (%): 75
--
Smiles Text: C=C(Br)CC(F)(F)S(=O)(=O)c1ncn(C(=O)N(CC)CC)n1
inhibition at 300 g/ha (%): 40
--
Smiles Text: CCSC(F)(F)S(=O)(=O)c1ncn(C(=O)N(CC)CC)n1
inhibition at 300 g/ha (%): 100

Next up:
Record C=CCC(F)(F)S(=O)(=O)c1ncn(C(=O)N(CC)CC)n1 , field inhibition at 300 g/ha: 70

---

- Test system: CHEAL (common lambsquarters)
- Test Summary: Pre-plant incorporated (PPI) herbicidal activity, warm season
- Type: in vivo, Chenopodium album
- Condition Notes: PPI application, 300 g/ha
Quick list: Percent inhibition CHEAL per entry.
Use % as the unit, but write only the number.

The examples below pair each entry with its known result.
Molecule: CCN(CC)C(=O)n1cnc(S(=O)(=O)C(F)(F)SCc2ccccc2)n1 [Example 10]
Recorded Endpoint: Percent inhibition CHEAL
Result Units: %
Quantitative Result: 100
--
Molecule: CCN(CC)C(=O)n1cnc(S(=O)(=O)C(F)(F)C(F)(F)Br)n1 [Example 4]
Recorded Endpoint: Percent inhibition CHEAL
Result Units: %
Quantitative Result: 100

For this molecule ( CCN(CC)C(=O)n1cnc(S(=O)(=O)C(F)(F)SC)n1 [Example 9] ), measured Percent inhibition CHEAL is 100

Record CCN(CC)C(=O)n1cnc(S(=O)(=O)C(F)(F)SCC(=O)OC)n1 [Example 11] , field Percent inhibition CHEAL: 100

Entry CCN(CC)C(=O)n1cnc(S(=O)(=O)C(F)(F)SCCOC)n1 [Example 13] — recorded Percent inhibition CHEAL = 100

Memo: CCN(CC)C(=O)n1cnc(S(=O)(=O)C(F)(F)F)n1 [Example 2] , reported Percent inhibition CHEAL: 100

Item: CCN(CC)C(=O)n1cnc(S(=O)(=O)C(F)(F)Cl)n1 [Example 3] | Percent inhibition CHEAL: 100

The reported Percent inhibition CHEAL of the molecule CCN(CC)C(=O)n1cnc(S(=O)(=O)C(F)(F)C(F)F)n1 [Example 16] was 100

Each recorded value in this set is attributed to patent US6461997B1.
